The measured values listed here are drawn from PubChem BioAssay (NCI).

assay comment: NCI Yeast Anticancer Drug Screen. Data for the sgs1 mgt1 strain (AID 161);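 note: 0% = growth of cultures given vehicle only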
condition: S. cerevisiae sgs1 mgt1 strain, at 50.0 µM, hits give high values
About 79,000 compounds went through this panel and 15% of them were active in at least one assay; those are over-represented in the sample as a whole.
Readings of growth inhibition for the listed compounds

| compound | growth inhibition [%] |
| --- | --- |
| O=S(O)CCCCCSSc1ccccc1 | 30.1 |
| CCOC(=O)C(Br)C(Br)c1cccc([N+](=O)[O-])c1 (stereo unspecified) | 99.7 |
| N#CC1=CN=C2C=CC=C3N=C(C(Cl)(Cl)Cl)N=C1N32 | 87.2 |
| CN(C)c1ccc2c(c1)Cc1cc(NC(=O)/C=C/C(=O)O)ccc1-2 | -8.55 |
| COc1ccc(/C=C/c2c[n+]([O-])ccc2[N+](=O)[O-])cc1 | 63.9 |
| CSc1nc(=S)c2[nH]c(C)nc2[nH]1 | 99.2 |

###

assay comment: NCI Yeast Anticancer Drug Screen. Data for the rad50 strain (AID 155);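 note: 0% = growth of vehicle-only cultures of the same strain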
condition: S. cerevisiae rad50 strain growth inhibition; at 5.0 µM (retest, dose inferred, filed as 0.5); hits give high values
The panel holds about 79,000 compounds, 15% with a hit somewhere; the sample as a whole holds those more often.
quantity kind: growth inhibition (%)

| compound | reading unit | reported value |
| --- | --- | --- |
| COc1ccc(CC[N+]2(C)COc3cc4oc(=O)cc(C)c4cc3C2)cc1OC (centres undefined) | % | 5 |
| C=C(C)C(=O)OC1CC2=CC(CC3(C)OC3C3OC(=O)C(=C)C13)OC2=O (centres undefined) | % | 1 |
| O=C(CC1(O)C(=O)Nc2c(Cl)cc(Cl)cc21)c1ccc(Br)cc1 (centres undefined) | % | 3 |
| O=C1N[C@H]2[C@H](CS[C@H]2CCCCC(=O)N(CCP(c2ccccc2)c2ccccc2)CCP(c2ccccc2)c2ccccc2)N1 | % | 2 |
| CC(C)CCCC(C)[C@H]1CCC(C2C[C@@H](O)[C@@H]3CC(O)[C@@H](O)C[C@]3(CO)C2=O)[C@]1(C)CCO (some centres undefined) | % | -14 |
| N=C(/C(=C/c1ccccc1)c1ccccc1)c1ccccc1 | % | 5 |
| Cc1cc(N)c2ccccc2[n+]1CCCCCCCCCC[n+]1c(C)cc(N)c2ccccc21 | % | 42 |
| O=C1c2c(O)ccc(O)c2C(=O)c2c(O)ccc(O)c21 | % | -23 |
| CN(C)CCC(=O)C(=Cc1cc(Cl)cc(Cl)c1)C(=O)CCN(C)C | % | 2 |

###

assay comment: NCI Yeast Anticancer Drug Screen. Data for the cln2 rad14 strain (AID 165);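 note: 0% = growth equal to vehicle treated cultures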
condition: S. cerevisiae cln2 rad14 strain, at 50.0 µM, hits give high values
This is part of a sample that, as a whole, favours compounds with a hit. Of some 79,000 tested, about 15% had one in any assay. Calls of active or inactive are those of the source. Cut-off read from the data, not from the text of the source: active = growth inhibition above about 70%; inactive = the rest.
Known growth inhibition of a selection of molecules
quantity kind: growth inhibition

| molecule | reported value |
| --- | --- |
| O=C(/C=C/C(=O)OCCCl)OCCCl | -22.8% (inactive) |
| CC(=O)c1c2c(cc3c1CC1(C3)Cc3ccc4c(c3C1=O)CCC4)CCC2 (stereo not drawn) | 6.8% (inactive) |
| N#C/C(=C\c1c(Cl)cccc1Cl)c1nc2ccccc2[nH]1 | 88.9% (active) |
| CCOC(=O)c1cnc(SCc2ccc(Cl)cc2Cl)nc1Cl | 71.8% (active) |
| COc1ccc2c(c1)CC[C@@H]1[C@@H]2CC[C@]2(C)/C(=N/OCCN3CCCCC3)CC[C@@H]12 | 78.7% (active) |
| Cc1c(C2CC(=O)NC2=O)c2ccccc2n1C (stereo not drawn) | 69% (inactive) |
| O=C1N[C@H]2[C@H](CS[C@H]2CCCCC(=O)N(CCP(c2ccccc2)c2ccccc2)CCP(c2ccccc2)c2ccccc2)N1 | -18.8% (inactive) |
| O=Nc1ccccc1N=O | 98.3% (active) |
| CC(=O)N1CCC(Cc2ccccc2)CC1 | 56.9% (inactive) |
| CCOC(=O)c1csc(/C=C/c2cc(OC)c(OC)c(OC)c2)n1 | -19.5% (inactive) |
| CC(=O)Oc1cc2c(cc1OC(C)=O)OCC(c1ccccc1)C2 (stereo not drawn) | 35.9% (inactive) |
| COc1c2occc2c(OC)c2c(C)c(C(=O)OCCN3CCOCC3)oc12 | 19.4% (inactive) |
| Cc1cc(O)c2c(c1)C(=O)c1c(c(O)cc(O)c1-c1c(O)cc(O)c3c1C(=O)c1cc(C)cc(O)c1C3=O)C2=O | 58.1% (inactive) |
| CCOC(=O)C[n+]1c(C)cc(-c2ccccc2)cc1C | 28.1% (inactive) |
| Nc1ccc(S(=O)(=O)O)c2cccc(S(=O)(=O)O)c12 | 71.9% (active) |
| CC12CCCC1C1CC=C3CC(OC=O)CCC3(C)C1CC2 (stereo not drawn) | 38.8% (inactive) |
| O=S1(=O)CS(=O)(=O)OCCCO1 | -9.45% (inactive) |
| c1ccc(/C(=N\Nc2nc3ccccc3s2)c2ccccn2)cc1 | 79.7% (active) |
| C#CC(C)(C)Nc1c2ccccc2nc2ccccc12 | 93.7% (active) |
| CCOC(=O)c1c(C)[nH]c(C(c2ccccc2)c2[nH]c(C)c(C(=O)OCC)c2C)c1C | 75.2% (active) |
| Cn1c(N)c(N=Nc2ccc(S(N)(=O)=O)cc2)c(=O)n(C)c1=O | 28.7% (inactive) |
| Oc1c(I)cc(Cl)c2cccnc12 | 96.8% (active) |
| CCN(CC)CCOc1ccc(/C=C/c2ccccc2)cc1 | 56.7% (inactive) |

###

assay comment: NCI Yeast Anticancer Drug Screen. Data for the rad50 strain (AID 155);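 note: 0% = growth of vehicle-only cultures of the same strain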
condition: S. cerevisiae rad50 strain growth inhibition; at 50.0 µM; hits give high values
Method: Growth inhibition of yeast strains with defined genetic alterations is measured as a screen for potential anti-cancer activity. Selected strains with alterations in DNA damage repair or cell cycle control were exposed to compounds and growth inhibition was measured relative to vehicle treated controls. The strain used in this assay is rad50
This is part of a sample that, as a whole, favours compounds with a hit. Of some 79,000 tested, about 15% had one in any assay.
Label TRUE when growth inhibition is at or above 40%; anything below gets FALSE.

| molecule | assigned label |
| --- | --- |
| O=C(O)c1ccc2c(c1)CC1(C2)Cc2cc3c(cc2C1=O)CCC3 (configuration not stated) | TRUE |
| CCCCCCCCCCCCCC(=O)OCC(O)CO (configuration not stated) | FALSE |
| O[C@H]1[C@H]2c3cc4c(cc3CN3CCC(=C[C@@H]1O)[C@H]23)OCO4 | TRUE |
| CCOC(=O)C(Br)C(Br)c1cccc([N+](=O)[O-])c1 (configuration not stated) | TRUE |
| Cc1cc2nc(CC(=O)c3ccncc3)c(CC(=O)c3ccncc3)nc2cc1C | TRUE |
| CCCCCCCCCCCCCCCCC1CCc2ccccc21 (configuration not stated) | TRUE |
| CNC(=S)N/N=C/c1nccc(-c2ccccc2)c1C | FALSE |
| O=C1C=C(Br)C(=O)C(Br)=C1 | TRUE |
| Nc1nccc(NCCCCCCNc2ccnc(N)n2)n1 | TRUE |
| C1=NCCN=Cc2ccccc2NCCNc2ccccc21 | TRUE |
| O=S(=O)(O)c1ccc(O)c2cc(Nc3ccccc3)ccc12 | TRUE |
| CC(C)/C(Cl)=N\OC(=O)Nc1ccc(S(N)(=O)=O)cc1 | FALSE |

###

assay comment: NCI Yeast Anticancer Drug Screen. Data for the sgs1 mgt1 strain (AID 161);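 note: 0% = growth of cultures given vehicle only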
condition: S. cerevisiae sgs1 mgt1 strain, at 50.0 µM (retest, dose inferred, filed as 5.0), hits give high values
This is part of a sample that, as a whole, favours compounds with a hit. Of some 79,000 tested, about 15% had one in any assay. The source made the active and inactive calls. Rule as the data show it: active = growth inhibition above about 70%; inactive = the rest.
quantity kind: growth inhibition

| compound | reported value |
| --- | --- |
| COc1ccc(C2COc3cc(O)c(O)cc3C2)cc1 (configuration not stated) | 99% (active) |
| CC(=O)c1cc(-c2ccc(C)cc2)nc2c(C)cc(C)cc12 | 32% (inactive) |
| CN1C(=O)C2N(C(=O)C1(C)S)c1ccccc1C2(C)C (configuration not stated) | 41% (inactive) |
| COC(=O)c1ncc(Cl)cc1Cl | -7% (inactive) |
| Cc1c2ccccc2c(CSC(=N)N)c2ccccc12 | 98% (active) |
| CCOC(=O)/C(Cl)=C(\OCC)C(=O)OCC | 19% (inactive) |
| CCOC(=O)/C(=C/c1ccccn1)C(=O)c1ccccc1 | 85% (active) |
| COc1ccc(NC(=O)CCC(NS(=O)(=O)c2ccc(C)cc2)C(=O)O)cc1 (configuration not stated) | -23% (inactive) |
| O=C(Nc1c(Cl)cccc1Cl)OCCOc1ccc(Cl)cc1Cl | 58% (inactive) |
| CCS(CC)(CC)CC1CCCC2=CCC(P(=O)(c3ccccc3)c3ccccc3)CC21 (configuration not stated) | 11% (inactive) |
| CN(C)CCC(/C=C/c1ccccc1)=N\Nc1ccc(Cl)cc1Cl | 91% (active) |
| O=C(Cc1ccccc1)c1ccc(O)c(F)c1 | 72% (active) |
